- System: PRKD2
- assay-setup: concentration: 1 μM, replicates: in singlicate; n = 1;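 note: KINOMEscan kinase panel screen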
measure: %Inh (%)
Report the figure in % without appending any unit label.

Example entries begin here.
molecule=O=C(Nc1c(F)cccc1F)c1cc(C(=O)c2ccccc2F)c[nH]1 measure=%Inh endpoint_value=14
molecule=CN(C)CCNS(=O)(=O)c1ccc(-c2ccnc3[nH]ccc23)cc1 measure=%Inh endpoint_value=10
molecule=Cn1cc(-c2ccc3c(c2)CCN3C(=O)Cc2cc(F)cc(F)c2F)c2c(N)ncnc21 measure=%Inh endpoint_value=0

Tested on PRKD2: Cc1nn2c(=O)cc(N3CCO[C@H](C)C3)nc2n1Cc1cccc(Cl)c1Cl . Observed %Inh: 2

Tested on PRKD2: Cc1ccc(-c2ccc3occ(-c4ccc(S(C)=O)cc4)c3c2)nn1 (centres unmarked) . Observed %Inh: 9

* * *

- Test system: SRPK2
- assay-setup: concentration: 1 μM, replicates: in singlicate; n = 1
// reported %Inh per item
A complete answer gives the number followed by the unit.

molecule="Cc1ccc(-c2ccc3occ(-c4ccc(S(C)=O)cc4)c3c2)nn1 (stereo not shown)" endpoint_value=6%

# context switch: different molecule, same %Inh
%Inh measured on COC(=O)Nc1nc2ccc(Oc3ccc(NC(=O)Nc4cc(C(F)(F)F)ccc4F)cc3)cc2[nH]1.Cl = 0%

* * *

- Test system: HIPK4
- assay-setup: concentration: 1 μM, replicates: in singlicate; n = 1
// reported %Inh per item
Report the figure in % without appending any unit label.

compound="O=C(O)C(F)(F)F.O=c1[nH]ccc2nc(N[C@@H]3CCNC3)nc(Nc3ccc4c(c3)S(=O)(=O)CC4)c12 [GSK2181306]" measured_on=HIPK4 endpoint_value=56
compound="Cl.Cl.NC(CNC(=O)c1cc(Br)c(-c2ccnc3[nH]ccc23)s1)c1ccccc1 (centres unmarked) [GSK1322949]" measured_on=HIPK4 endpoint_value=97.3
compound="Cc1cc(-c2ccnc(Nc3cccc(C#N)c3)n2)cc(C)c1O [GSK1440913]" measured_on=HIPK4 endpoint_value=88

Tested on HIPK4: Nc1ncnc2scc(-c3ccc(NC(=O)Cc4cc(F)ccc4F)cc3)c12.O=C(O)C(F)(F)F [SB-731254-M] . Observed %Inh: 2

Tested on HIPK4: CC(C)(C)c1ccc(C(=O)Nc2cn3cc(-n4ccnc4)ccc3n2)cc1 . Observed %Inh: 21

* * *

- System: AMPK-alpha2
- Construct: gene PRKAA2
- assay-setup: concentration: 1 μM, replicates: in singlicate; n = 1
measure: %Inh
A complete answer gives the number followed by the unit.

Example entries begin here.
compound=Cc1ccccc1CC(=O)N1CCc2cc(-c3cn(C)c4ncnc(N)c34)ccc21 measure=%Inh endpoint_value=23%
compound="Cl.Cl.NC(CNC(=O)c1cc(Br)c(-c2ccnc3[nH]ccc23)s1)c1ccccc1 (centres unmarked)" measure=%Inh endpoint_value=46%
compound=Cc1cccc(Nc2nc(NCCN)ncc2C(N)=O)c1 measure=%Inh endpoint_value=0%
compound=CC(C)c1nc(-c2ccc(F)c(NS(=O)(=O)c3c(F)cccc3F)c2)c(-c2ccnc(Nc3ccc(N4CCOCC4)nc3)n2)s1 measure=%Inh endpoint_value=69%
compound=O=C(Nc1n[nH]c2cc(-c3cccs3)ccc12)C1CC1 measure=%Inh endpoint_value=0%
compound=COc1ccc(C2=C(Nc3cccc(O)c3)C(=O)NC2=O)cc1 measure=%Inh endpoint_value=10%
compound=Cc1cc(-c2ccnc(Nc3cccc(C#N)c3)n2)cc(C)c1O measure=%Inh endpoint_value=32%
compound=Cn1cc(-c2ccc3c(c2)CCN3C(=O)Cc2cc(F)cc(C(F)(F)F)c2)c2c(N)ncnc21 measure=%Inh endpoint_value=21%

Tested on AMPK-alpha2: Cc1ccc(O)cc1Nc1ccnc2cc(-c3ccc(CN4CCCCC4)o3)ccc12 . Observed %Inh: 0%
